- Measured target: pNOB8 ParA (Sulfolobus NOB8H2, plasmid pNOB8) (UniProt O93708)
- Protocol description: fluorescence polarization
- Protocol conditions: AMPPNP; stoichiometry ~1 ParA dimer to 2 duplexes at 1 uM DNA; FP: 25 mM Tris-HCl pH 7.5, 100 mM NaCl, 1 nM 5'-fluorescein DNA, with ATP/AMPPNP, ADP or no nucleotide; temperature not stated. Crystals: 20% PEG 4000, 10% …
Measured metric: Kd (nM)
Respond with the bare value in nM.

## Input Given TGACGCCGGCGTCA (double strand) [14mer nsDNA, FP probe] , respond with its Kd.
## Output 116

---

- Measured target: pNOB8 ParA (Sulfolobus NOB8H2, plasmid pNOB8) (UniProt O93708)
- Protocol description: fluorescence polarization
- Protocol conditions: FP: 25 mM Tris-HCl pH 7.5, 100 mM NaCl, 1 nM 5'-fluorescein DNA, with ATP/AMPPNP, ADP or no nucleotide; temperature not stated. Crystals: 20% PEG 4000, 10% …
Measured metric: pKd
API: returns pKd as number; meaning -log10 of concentration in mol/L.

## Input Given TGACGCCGGCGTCA (double strand) [14mer nsDNA, FP probe] , respond with its pKd.
## Output 6.92

---

- Measured target: pNOB8 ParA(K270E) (Sulfolobus NOB8H2, plasmid pNOB8)
- Protocol description: fluorescence polarization
- Protocol conditions: FP: 25 mM Tris-HCl pH 7.5, 100 mM NaCl, 1 nM 5'-fluorescein DNA, with ATP/AMPPNP, ADP or no nucleotide; temperature not stated. Crystals: 20% PEG 4000, 10% …
Measured metric: Kd (nM)
Respond with the bare value in nM.

## Input Given TGACGCCGGCGTCA (double strand) [14mer nsDNA, FP probe] , respond with its Kd.
## Output 300

---

- Measured target: pNOB8 ParA(K58E) (Sulfolobus NOB8H2, plasmid pNOB8) (UniProt O93708)
- Protocol description: fluorescence polarization
- Protocol conditions: FP: 25 mM Tris-HCl pH 7.5, 100 mM NaCl, 1 nM 5'-fluorescein DNA, with ATP/AMPPNP, ADP or no nucleotide; temperature not stated. Crystals: 20% PEG 4000, 10% …
Measured metric: pKd
API: returns pKd as number; meaning -log10 of concentration in mol/L.

## Input Given TGACGCCGGCGTCA (double strand) [14mer nsDNA, FP probe] , respond with its pKd.
## Output 6.56

---

- Measured target: pNOB8 ParA(R52E-K218E) (Sulfolobus NOB8H2, plasmid pNOB8) (UniProt O93708)
- Protocol description: fluorescence polarization
- Protocol conditions: FP: 25 mM Tris-HCl pH 7.5, 100 mM NaCl, 1 nM 5'-fluorescein DNA, with ATP/AMPPNP, ADP or no nucleotide; temperature not stated. Crystals: 20% PEG 4000, 10% …
Measured metric: Kd (µM)
Respond with the bare value in µM.

## Input Output reported Kd of the sequence TGACGCCGGCGTCA (double strand) [14mer nsDNA, FP probe] on pNOB8 ParA(R52E-K218E) (Sulfolobus NOB8H2, plasmid pNOB8) (UniProt O93708).
## Output 3.19
